Every entry's value here was drawn from patent US20250027068.

Molecular target: pooled human IgG
experimental-readout: Enzyme Activity Endpoint Assay (purified): scIgG (ng/µL)
Form entry: value (ng/µL) — number only.

• PRT-134 (protein) MRNATEAYAKEVPHQITSVWTKGVTPLTPEQFRYNNEDVIHAPYLAHQGWYDITKAFDGKDNLLCGAATAGNMLHWWFDQNKTEIEAYLSKHPEKQKIIFNNQELFDLKAAIDTKDSQTNSQLFNYFRDKAFPNLSARQLGVMPDLVLDMFINGYYLNVFKTQSTDVNRPYQDKDKRGGIFDAVFTRGDQTTLLTARHDLKNKGLNDISTLIKQELTEGRALALSHTYANVSISHVINLWGADFNAEGNLEAIYVTDSDANASIGMKKYFVGINAHGHVAISAKKIEGENIGAQVLGLFTLSSGKDIWQKLS = 0

Proceed to the following item.
Q: Please list Enzyme Activity Endpoint Assay (purified): scIgG recorded for the protein PRT-136 (protein) MRNATEAYAKEVPHQITSVWTKGVTPLTPEQFRYNNEDVIHAPYLAHQGWYDITKAFDGKDNLLCGAATAGNMLHWWFDQNKTEIEAYLSKHPEKQKIIFNNQELFDLKAAIDTKDSQTNSQLFNYFRDKAFPNLSARQLGVMPDLVLDMFINGYYLNVFKTQSTDVNRPYQDKDKRGGIFDAVFTRGDQTTLLTARHDLKNKGLNDISTIIKQELTEGRALALSHTYANVSISHVINLWGADFNAEGNLEAIYVTDSDANASIGMKKYFVGVNAHGHVAISAKKIEGENIGAQVLGLFTLSSGKDIWQKLS
Ans: 0
